System: P. aeruginosa ATCC 35151
Assay: Broth microdilution MIC in CAMHB
Format: cell-based
Settings: Pseudomonas aeruginosa, ATCC35151; MHB; hyper-permeable strain; read-out: Minimum Inhibitory Concentration, P. aeruginosa ATCC 35151
# MIC annotations

Solved cases below.
- Compound: "NCCN1CCN(C(=O)N[C@@H](C(=O)N[C@H]2Cc3cccc(C(=O)O)c3OB2O)c2ccc(C(=O)O)cc2)C(=O)C1=O (single isomer, unassigned) [Example 84]"
  Target system: "P. aeruginosa ATCC 35151"
  MIC: "0.5 to 1 mg/L"
- Compound: "CCN1CCN(C(=O)N[C@@H](C(=O)N[C@H]2Cc3cccc(C(=O)O)c3OB2O)c2ccc(C(=O)O)c(Cl)c2)C(=O)C1=O (single isomer, unassigned) [Example 154]"
  Target system: "P. aeruginosa ATCC 35151"
  MIC: "< 0.25 mg/L"
- Compound: "CCN1CCN(C(=O)NC(C(=O)N[C@H]2Cc3cccc(C(=O)O)c3OB2O)c2cncc(O)c2)C(=O)C1=O (stereo partly drawn) [Example 112]"
  Target system: "P. aeruginosa ATCC 35151"
  MIC: "2 to 4 mg/L"

Find the measured MIC of NC1(CN2CCN(C(=O)NC(C(=O)N[C@H]3Cc4cccc(C(=O)O)c4OB3O)c3cccc(NS(N)(=O)=O)c3)C(=O)C2=O)CC1 (stereo partly drawn) [Example 120] with P. aeruginosa ATCC 35151 as test system.
0.5 to 1 mg/L

Find the measured MIC of NCCCN1CCN(C(=O)N[C@@H](C(=O)N[C@H]2Cc3cccc(C(=O)O)c3OB2O)c2ncc(O)cc2F)C(=O)C1=O [Example 13] with P. aeruginosa ATCC 35151 as test system.
< 0.25 mg/L

Find the measured MIC of CCN1CCN(C(=O)NC(C(=O)N[C@H]2Cc3cccc(C(=O)O)c3OB2O)c2c(F)c(F)c(O)c(F)c2F)C(=O)C1=O (stereo partly drawn) [Example 175] with P. aeruginosa ATCC 35151 as test system.
0.5 to 1 mg/L

----------
Biological target: E. coli K12 PBP3 (Escherichia coli)
Sequence (P0AD68 1-577): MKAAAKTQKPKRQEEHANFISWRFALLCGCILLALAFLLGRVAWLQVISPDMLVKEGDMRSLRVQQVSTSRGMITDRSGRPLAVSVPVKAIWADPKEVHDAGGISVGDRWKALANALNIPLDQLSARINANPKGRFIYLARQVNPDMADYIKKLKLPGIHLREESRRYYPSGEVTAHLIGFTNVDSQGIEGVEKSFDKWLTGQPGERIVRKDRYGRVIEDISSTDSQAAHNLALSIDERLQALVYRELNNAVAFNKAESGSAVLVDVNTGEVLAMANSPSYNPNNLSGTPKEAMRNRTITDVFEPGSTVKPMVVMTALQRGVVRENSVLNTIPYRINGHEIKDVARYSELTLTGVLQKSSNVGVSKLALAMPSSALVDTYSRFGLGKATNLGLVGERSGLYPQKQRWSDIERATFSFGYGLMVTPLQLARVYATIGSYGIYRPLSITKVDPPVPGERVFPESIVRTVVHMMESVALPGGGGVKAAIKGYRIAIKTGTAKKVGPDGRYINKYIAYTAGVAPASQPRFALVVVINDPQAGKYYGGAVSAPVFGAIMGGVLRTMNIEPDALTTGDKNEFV
Assay: biochemical
# EC50 annotations

Solved cases below.
- Compound: "NCCCN1CCN(C(=O)N[C@@H](C(=O)N[C@H]2Cc3cc(Cl)c(F)c(C(=O)O)c3OB2O)c2c(F)cc(O)c(O)c2Cl)C(=O)C1=O [Example 190]"
  EC50: "< 30 µM"
- Compound: "CCN1CCN(C(=O)NC(C(=O)N[C@H]2Cc3ccc(SC)c(C(=O)O)c3OB2O)c2csc(N)n2)C(=O)C1=O (stereo partly drawn) [Example 56]"
  EC50: "30 to 500 µM"

Turning now to a further compound:
State, in one line, measured EC50 of CCN1CCN(C(=O)N[C@@H](C(=O)N[C@H]2Cc3cccc(C(=O)O)c3OB2O)c2cc(Cl)c(O)cc2Cl)C(=O)C1=O (single isomer, unassigned) [Example 91]
< 30 µM

----------
System: N. gonorrhoeae WHO K
Experiment: Liquid broth MIC in Fastidious broth
Assay type: cell-based
Conditions: Neisseria gonorrhoeae, read-out: Minimum Inhibitory Concentration, N. gonorrhoeae WHO K
Test readout: MIC

Solved cases below.
- Compound: "CCN1CCN(C(=O)NC(C(=O)N[C@H]2Cc3cccc(C(=O)O)c3OB2O)c2cncc(O)c2)C(=O)C1=O (stereo partly shown) [Example 112]"
  MIC: "> 64 µg/mL"
- Compound: "CCN1CCN(C(=O)NC(C(=O)N[C@H]2Cc3cccc(C(=O)O)c3OB2O)c2cc(F)c(O)c(Cl)c2)C(=O)C1=O (stereo partly shown) [Example 164]"
  MIC: "16 to 32 µg/mL"
- Compound: "NS(=O)(=O)Nc1ccc(F)c(C(NC(=O)N2CCN(CCF)C(=O)C2=O)C(=O)N[C@H]2Cc3cccc(C(=O)O)c3OB2O)c1 (stereo partly shown) [Example 198]"
  MIC: "16 to 32 µg/mL"

State, in one line, measured MIC of NC(=O)c1ccc(C(NC(=O)N2CCN(CCF)C(=O)C2=O)C(=O)N[C@H]2Cc3cccc(C(=O)O)c3OB2O)cc1O (stereo partly shown) [Example 46]
16 to 32 µg/mL
